Let's look at some molecules and their measured melting point.

CCOC(=O)Cc1ccc(Cc2n[nH]c3c2c(=O)n(-c2ccccc2)c2ncccc32)cc1: 263 to 264 °C

Determine from records and report melting point for `Cc1ccc(S(=O)(=O)On2nnc3ccc([N+](=O)[O-])cc32)cc1`
142 to 144 °C

Determine from records and report melting point for `CC(=O)c1c(Cl)n(C)c2ccccc12`
180 °C

Determine from records and report melting point for `COC(=O)c1ccc2ncc(C(=S)NCc3ccc(Cl)cc3)c(O)c2c1`
259 to 261 °C

Determine from records and report melting point for `CN(Cc1cccc(Cl)c1)c1ccc(C(N)=O)nc1`
178 to 183 °C

Determine from records and report melting point for `CN(C)n1c(Cl)n[nH]c1=O`
158 °C

Determine from records and report melting point for `Cc1cccc(N2CCNC2=O)c1`
137 to 138 °C

Determine from records and report melting point for `CN(C)Cc1ccc(CSCCNC2=NS(=O)(=O)C(C(=O)N(C)C)=C2N)o1`
101 to 104 °C

Determine from records and report melting point for `Cc1c(CCC(=O)O)n(Cc2ccc(-n3ccnc3)cc2)c2ccc(F)cc12`
222 °C

Determine from records and report melting point for `O=C(C=Cc1ccc(O)cc1)NCCO`
149 to 151 °C

Determine from records and report melting point for `C(=CCON(c1ccccc1)c1ccccc1)CON(c1ccccc1)c1ccccc1`
74 to 76 °C

====

Let's look at some molecules and their measured melting point.

Worked examples follow.
CCOC(=O)C1=C(C)NC(SCc2ccc(OC)cc2)=NC1c1cccc(Cl)c1Cl (stereo not given): 134 to 135 °C
CC(=O)OCCn1nc(-c2cc(C(C)(C)C)c(O)c(C(C)(C)C)c2)c2cccnc21: 115 to 116 °C
CCOC(=O)c1n[nH]c(CC)c1Sc1cc(Cl)cc(Cl)c1: 138 to 139 °C
COc1cccc(N(c2ccccc2)c2ccc(-c3ccc(N(c4ccccc4)c4cccc(OC)c4)cc3)cc2)c1: 120 to 125 °C
Clc1ccccc1C=C(Cn1cncn1)C1(Cl)CC1: 82 to 85 °C
Cc1cc(C)c(C(O)P(=O)(c2ccccc2)c2ccccc2)c(C)c1 (stereo not given): 152 to 153 °C
CCOC(CN1C(=O)C2=C(c3ccsc3)N(CC(OCC)OCC)C(=O)C2=C1c1ccsc1)OCC: 166 to 167 °C
C=CCSC1(C(F)(F)F)CN(CC)C(=O)Nc2ccc(Cl)cc21 (stereo not given): 138 to 142 °C
CN(C)C=Nc1c(Cl)cc(N=Cc2cccc(F)c2)cc1Cl: 95 to 96 °C
COC(=O)c1cccc(C)c1N: 27 to 29 °C

Determine from records and report melting point for CC(=O)SCC(Cc1ccccc1)C(=O)Nc1ccc(Cl)c(C(=O)O)c1 (stereo not given)
163 to 165 °C

Determine from records and report melting point for CCOC(=O)c1ccc(C#CC(O)c2cc(C(C)(C)C)cc(C(C)(C)C)c2OC)cc1 (stereo not given)
101 to 103 °C

Determine from records and report melting point for `CCc1nc2c(N)nc3ccc(OCc4ccccc4)cc3c2n1C`
238 to 239 °C

Determine from records and report melting point for `Cc1nnc2ncc(-c3ccccc3Cl)nn12`
172 to 175 °C

Determine from records and report melting point for `NC(=O)C1(c2cccc(Br)c2)CCOCC1`
245 to 247 °C

Determine from records and report melting point for `Nc1ccccc1NS(=O)(=O)c1cc(C(=O)O)cc(NCc2ccco2)c1Oc1ccccc1`
105 to 110 °C

Determine from records and report melting point for `Cc1oc(=O)c(Nc2ccccc2)nc1Cl`
133 to 137 °C

Determine from records and report melting point for `CC1(C)CC(=O)c2c(C(=O)O)c[nH]c2C1`
231 to 232 °C

Determine from records and report melting point for CCC1(CC)C(=O)N(C(C)(C)C)CC(C)(C)N1OC(C)c1ccc(CCl)cc1 (stereo not given)
66 to 68 °C

====

measure.name: melting point

Cc1c(C)c2c(c(C)c1NC(=O)OC(C)(C)C)C(c1ccc(C(C)C)cc1)C(C)(C)O2 (centres undefined): 119 to 120 °C
CCOC(=O)c1cn2c3c(c(-c4ccc(S(N)(=O)=O)cc4)c(F)cc3c1=O)OCC2C (centres undefined): > 250 °C
Cc1[nH]c(-c2ccccc2)nc1C(O)C(C)C (centres undefined): 214 °C
COC(=O)CCc1ccc(OCCc2nc(-c3ccccc3)oc2C)cc1: 50.2 to 51.7 °C
Cc1nc(C)c(C(C)(O)c2ccoc2)o1 (centres undefined): 93 to 95 °C
Cc1cncn1CC#Cc1cc(CN2CCOCC2)cc2c(=O)c(C(=O)NCc3ccc(Cl)cc3)cn(C)c12: 149 to 152 °C

Determine from records and report melting point for `COc1cc2c(cc1OC)C1=NCCN1C(/C=C(\O)c1cccnc1)=N2`
275 °C

Determine from records and report melting point for `Nc1nc2cccnc2c2c1nc(O)n2Cc1ccccc1`
> 250 °C

Determine from records and report melting point for `C=Cc1c(NC(=O)c2cn(C)nc2C(F)(F)F)cccc1C(C)(C)C`
118 to 119 °C

Determine from records and report melting point for `COc1cc(C(=O)N2CCN(C(=O)C3=Cc4ccc(OC)c(OC)c4CCC3)CC2)cc(OC)c1OC`
133 to 134 °C

Determine from records and report melting point for `CN1CCN(C2=Nc3ccccc3Sc3ccccc32)C[C@H]1Cc1ccccc1`
46 to 63 °C

Determine from records and report melting point for O=[N+]([O-])c1ccc(N2CCN(CC(O)(Cn3cncn3)c3ccc(Cl)cc3Cl)CC2)cc1 (centres undefined)
168 °C

Determine from records and report melting point for O=C(O)C1CCc2c(c3cc(O)ccc3n2C(=O)c2ccccc2)C1 (centres undefined)
224 to 227 °C

Determine from records and report melting point for `Cc1nc2ccccc2n(-c2ccc(CC(=O)O)cc2)c1=O`
179 to 182 °C

Determine from records and report melting point for `CSc1cc(CCC(=O)O)cc(-c2nc(=O)c3ccccc3s2)n1`
236 °C

====

Let's look at some molecules and their measured melting point.

Worked examples follow.
CC(O)(CCF)c1ccc(-c2ccc(F)cc2)cc1 (stereo not given): 90 to 92 °C
Cn1cc(C(=O)O)c(=O)c2cc(F)c(-n3cccc3)cc21: 284 to 285 °C
CCCc1c(OCCCSCCC(=O)O)ccc(C(C)=O)c1O: 90 to 92 °C
CCCCCCCCCCCCCCOc1ccc(CCN(C(C)=O)c2cccc(Cc3nccs3)c2)cc1: 46 to 50 °C
O=C1C(=Cc2ccncc2)CCc2ccccc21: 112 to 114 °C

Determine from records and report melting point for `Cc1ccc(C)n1CCNC(=O)CN1CCCC1=O`
109 to 111 °C

Determine from records and report melting point for `FC(F)(F)c1ccc2nc(-c3csc(Nc4ncccc4Cl)n3)[nH]c2c1`
207 to 208 °C

Determine from records and report melting point for CNCC1Cc2cc(C)cc(-c3cccc(OC)c3OC)c2O1 (stereo not given)
85 to 89 °C

Determine from records and report melting point for `Cc1ccc2c(n1)N(CCCN1CCCC1)c1ccccc1N(C)C2=O`
134 to 136 °C

Determine from records and report melting point for `CCOC(=O)c1nnc2c(sc3nc(C)ccc32)c1OCC`
158 to 160 °C

====

measure.name: melting point

Worked examples follow.
Cc1cccc(CCC(O)c2ccccc2)c1NC(=O)CC1c2ccccc2Oc2ccccc21 (stereo not given): 193 to 194 °C
NC(=S)Nc1cnccn1: 234 to 235 °C
CC(C)(C)NC(=S)Nc1cc(Cl)cc(Cl)c1: 164 to 165 °C

Determine from records and report melting point for CCNCC1CCN(c2c(F)cc3c(=O)c(C(=O)O)cn(C4CC4)c3c2C(F)(F)F)C1 (stereo not given)
239 to 241 °C

Determine from records and report melting point for COc1ncccc1-c1ccc(OC2SCC(OC(C)=O)C(OC(C)=O)C2OC(C)=O)c(Cl)n1 (stereo not given)
221 °C

Determine from records and report melting point for CC1(C)Cc2cc3c(cc2O1)OCC31C(=O)N(CC(=O)Nc2ccccc2F)c2cccc(-c3cncnc3)c21 (stereo not given)
> 250 °C

====

Let's look at some molecules and their measured melting point.

CC(CO)NC(=O)COc1cc(Cl)ccc1C(=O)NCCN1CCN(Cc2ccc(Cl)c(Cl)c2)CC1 (centres undefined): 115 to 116 °C
COc1ccc(C2=CCC(N3CCN(Cc4ccccc4)CC3)CC2)cc1 (centres undefined): 126 to 128 °C
O=C1CSC=C(c2ccccc2)N1: 150 to 155 °C
Oc1cc(O)c2ccccc2n1: 350 to 355 °C

Determine from records and report melting point for `Cc1ccc(Cc2cnc(NCCCCc3ncc(Cl)cc3C)[nH]c2=O)cn1`
140 to 141 °C

Determine from records and report melting point for O=C1C(CCC(O)c2ccc(F)cc2)C(c2ccc(-c3ccc(C4OC(CO)C(O)C(O)C4O)cc3)cc2O)N1c1ccccc1 (centres undefined)
152 to 160 °C

Determine from records and report melting point for O=C1CCC(N2C(=O)c3cccc(Nc4ccccc4)c3C2=O)C(=O)N1 (centres undefined)
214 to 216 °C
